- System: NCI/ADR-RES
- assay: NCI tumour cell line growth inhibition, 48 h
The source made the active and inactive calls. No stated cut-off is given here; in the data, active = GI50 up to about 1.1 µM and inactive = higher. Peptide text beside a SMILES is read from it. * marks the point of attachment. Boc = CC(C)(C)OC(=O)*; OtBu = CC(C)(C)O*
reported_property: GI50

INSERT INTO measurements (compound, reported_property, test_value) VALUES
  ('c1ccc2c(c1)nc1n2CCNC1', 'GI50', '> 100 µM (inactive)'),
  ('Cc1c(C)c2c(c(N)c1C#N)C(=O)N(NC(=O)c1ccccc1)C2=O', 'GI50', '> 100 µM (inactive)'),
  ('O=C(NC(Cc1c[nH]c2ccccc12)C(=O)O)/C(=C/c1ccccc1O)NC(=O)c1ccccc1 (stereo unspecified)', 'GI50', '13.9 µM (inactive)'),
  ('COc1cc(C2c3cc4c(cc3[C@@H](Nc3ccc(N)cc3)C3COC(=O)[C@H]23)OCO4)cc(OC)c1O (stereo partly specified)', 'GI50', '3.75 µM (inactive)'),
  ('CCN(C(=O)N[C@@H](Cc1ccccc1)C(=O)N[C@@H](CC(C)C)C(=O)NC)c1ccccc1', 'GI50', '> 100 µM (inactive)'),
  ('C=CC(OC(C)=O)c1ccc(OC(=O)C(C)C)c(OC)c1 (stereo unspecified)', 'GI50', '10.2 µM (inactive)'),
  ('Cc1nc(Cl)c(C)c(Cl)n1', 'GI50', '> 53 µM (inactive)'),
  ('CC(C)(C)c1cc(/C=C(\C#N)C2=NCCO2)cc(C(C)(C)C)c1O', 'GI50', '2.66 µM (inactive)'),
  ('COc1cc(C23OCC(Cc4cc5c(cc42)OCO5)C3CO)cc(OC)c1OC (stereo unspecified)', 'GI50', '1.84 µM (inactive)'),
  ('CCCCCCc1cc2cc(C(=O)Nc3cccc(F)c3)c(=N)oc2cc1O', 'GI50', '2.35 µM (inactive)'),
  ('CN(C)S(=O)(=O)n1ccnc1', 'GI50', '> 100 µM (inactive)'),
  ('O=C(/C=C/c1ccc(O)c(O)c1)c1ccc(O)cc1O', 'GI50', '17.4 µM (inactive)'),
  ('O=C1O/C(=C\c2ccc(O)c(Br)c2)C(c2ccc(O)c(Cl)c2)=C1Br', 'GI50', '19.9 µM (inactive)'),
  ('CN(C)CCOC1(CC2CCCCC2)CCC(C(C)(C)C)CC1 (stereo unspecified)', 'GI50', '9.62 µM (inactive)'),
  ('COc1cc(OC)cc(OCc2nc3cc(C(F)(F)F)ccc3nc2-c2ccccc2)c1', 'GI50', '> 100 µM (inactive)'),
  ('CC(C)(C)OC(=O)CC(NC(=O)OC(C)(C)C)C(=O)NC(Cc1ccccc1)C(N)=O (stereo unspecified) (Boc-Asp(OtBu)-Phe-NH2; configuration not given here)', 'GI50', '> 100 µM (inactive)'),
  ('CN(C)CCNc1nc2ccccc2c2c1CCCC2', 'GI50', '25.1 µM (inactive)'),
  ('O=[N+]([O-])C(=C(N1CCCCC1)N1CCCCC1)/C(Cl)=C(\Cl)[N+](=O)[O-]', 'GI50', '22.7 µM (inactive)'),
  ('CC(C)Sc1nncc(/C(N)=N/O)n1', 'GI50', '> 100 µM (inactive)'),
  ('CC(=O)Nc1ccc2c(c1)C(=O)c1cccc(F)c1-2', 'GI50', '48.2 µM (inactive)'),
  ('CSc1ccc(-c2cc(-c3nc4ccccc4[nH]3)nc(N)c2C#N)cc1', 'GI50', '31.3 µM (inactive)'),
  ('COc1cc2cccc(N)c2cc1OC', 'GI50', '> 100 µM (inactive)'),
  ('C=CCSC1=N/C(=C\c2ccc(Cl)cc2)C(=O)N1CC=C', 'GI50', '34 µM (inactive)'),
  ('COC1OC(COC(=O)NCCCCC(=O)C(F)(F)F)C(O)C(O)C1O (stereo unspecified)', 'GI50', '> 100 µM (inactive)'),
  ('C/C(Nc1ccc(Cl)cc1)=C1/CCOC1=O', 'GI50', '> 75.9 µM (inactive)'),
  ('CCP(=O)(CC)C(Cl)(Cl)C(O)C(Cl)(Cl)Cl (stereo unspecified)', 'GI50', '> 100 µM (inactive)'),
  ('COC(=O)[C@]1(c2cc3ccccc3[nH]2)CC2CN(C(=O)OCc3ccccc3)C1CC2=O (stereo partly specified)', 'GI50', '29.3 µM (inactive)'),
  ('O=C(O)C1CCCCC1C(=O)Nc1nc2ccccc2[nH]1 (stereo unspecified)', 'GI50', '> 100 µM (inactive)'),
  ('O=C(Nc1ccccc1C(=O)NCCCO)/C(=C/c1ccccc1O)NC(=O)c1ccccc1', 'GI50', '17 µM (inactive)'),
  ('Nc1nc(Cl)c(N)c(NCC2(CO)CC2)n1', 'GI50', '> 100 µM (inactive)'),
  ('O=C1/C(=C\c2cccc(Oc3ccccc3)c2)S(=O)(=O)C(c2ccccc2)N1c1ccccc1Cl (stereo unspecified)', 'GI50', '29.4 µM (inactive)');
